# System: Prevotella intermedia
# METHOD SUMMARY: Agar dilution MIC, anaerobes
# Assay type: cell-based
# CONDITION SUMMARY: Prevotella intermedia, single isolates, anaerobic agar dilution; read-out: MIC Prevotella intermedia
Catalogue of compounds with associated MIC
The reply should be a number in µg/mL, with the unit left off.

Answered cases to consult:
COc1c(N2C[C@@H]3CCCN[C@@H]3C2)c(F)cc2c(=O)c(C(=O)O)cn(C3CC3)c12
0.5
CC(=O)NC[C@H]1CN(c2ccc(N3CCOCC3)c(F)c2)C(=O)O1
0.5
Cc1ncc([N+](=O)[O-])n1CCO
0.5

Then there is this compound:
Lab book: MIC of COc1c(N2CCNC(C)C2)c(F)cc2c(=O)c(C(=O)O)cn(C3CC3)c12 (stereo not drawn) noted as 0.25

---

# Tested on: MRSA 562
# METHOD SUMMARY: In vivo activity against MRSA 562 (ED50)
# Parameters: species or system Methicillin Resistant Staphylococcus aureus
# CONDITION SUMMARY: PO; MRSA 562 infection
QUANTITY KIND: ED50 (mg/kg body weight) PO

Answered cases to consult:
CC(=O)NC[C@H]1CN(c2ccc(N3CCN(C(=O)c4ccoc4)CC3)c(F)c2)C(=O)O1
25 mg/kg body weight
CC(=O)NC[C@H]1CN(c2ccc(N3CCC(N(C)C(=O)c4ccc([N+](=O)[O-])o4)CC3)c(F)c2)C(=O)O1
>25 mg/kg body weight

Then there is this compound:
Lab book: ED50 (mg/kg body weight) PO of `CC(=O)NC[C@H]1CN(c2ccc(N3CCN(C(=O)c4ccc(Br)o4)CC3)c(F)c2)C(=O)O1` noted as >25 mg/kg body weight

---

# Tested on: Fusobacterium montiferum
# METHOD SUMMARY: Agar dilution MIC, anaerobes
# Type: cell-based
# CONDITION SUMMARY: Fusobacterium, single isolates, anaerobic agar dilution; read-out: MIC Fusobacterium montiferum
QUANTITY KIND: MIC (µg/mL)
The reply should be a number in µg/mL, with the unit left off.

Answered cases to consult:
COc1c(N2C[C@@H]3CCCN[C@@H]3C2)c(F)cc2c(=O)c(C(=O)O)cn(C3CC3)c12
0.25
COc1c(N2CCNC(C)C2)c(F)cc2c(=O)c(C(=O)O)cn(C3CC3)c12 (stereo not shown)
0.25

Then there is this compound:
Lab book: MIC of `CC(=O)NC[C@H]1CN(c2ccc(N3CCOCC3)c(F)c2)C(=O)O1` noted as 0.25

---

Catalogue of molecules with associated MIC S. pneum AB 34
# System: S. pneum AB 34
# METHOD SUMMARY: MIC, agar incorporation method
# CONDITION SUMMARY: agar incorporation
The reply should be a number in µg/mL, with the unit left off.

Answered cases to consult:
CC(=O)NC[C@H]1CN(c2ccc(N3CCN(Cc4ccc(C=O)o4)CC3)c(F)c2)C(=O)O1
8
CC(=O)NC[C@H]1CN(c2ccc(N3CCN(Cc4ccc(C=NN)o4)CC3)c(F)c2)C(=O)O1
8
CC(=O)NC[C@H]1CN(c2ccc(N3CCN(Cc4ccc(Br)s4)CC3)c(F)c2)C(=O)O1
0.5
CC(=O)NC[C@H]1CN(c2ccc(N3CC4C(C3)C4N(C)C(=O)c3ccsc3)c(F)c2)C(=O)O1 (stereo partly shown)
8
CC(=O)NC[C@H]1CN(c2ccc(N3CCN(Cc4ccc(C5OCCCO5)o4)CC3)c(F)c2)C(=O)O1
8
CC(=O)NC[C@H]1CN(c2ccc(N3CCC(N(C)C(=O)c4ccc([N+](=O)[O-])o4)CC3)c(F)c2)C(=O)O1
2

Then there is this molecule:
Lab book: MIC S. pneum AB 34 of CC(=O)NC[C@H]1CN(c2ccc(N3CC4C(CN(C)Cc5ccc([N+](=O)[O-])o5)C4C3)c(F)c2)C(=O)O1 (stereo partly shown) noted as 2
